The entries below are paired with their reported GI50.
Test system: SF-268 CNS
ASSAY NAME: NCI tumour cell line growth inhibition, 48 h
PROPERTY: GI50

SMI: C=C[C@@H]1CCC/C=C/[C@@H]2C[C@H](O)C[C@H]2[C@H](O)/C=C/C(=O)O1
RESULT: 0.44 µM

SMI: O=C1NN(C(=O)c2ccccc2)C(c2ccc(Cl)c(Cl)c2)=C/C1=C\c1ccccc1[N+](=O)[O-]
RESULT: 3.97 µM

SMI: N#Cc1c(N)c(C(=O)c2ccc3c(c2)OCCO3)n2c1CCCC2
RESULT: 7.46 µM

----------
Tested on: UACC-62 melanoma
ASSAY NAME: NCI tumour cell line growth inhibition, 48 h
The molecules listed here are annotated with their GI50.

MOLECULE: COc1ccc2c(c1)C(=O)/C(=C/c1ccc(O)cc1)O2
GI50: 14700 nM
--
MOLECULE: CCCCCCCCCCCCCCCCCC1=NC(C)(C)CN1C(C)(C)CO
GI50: 1790 nM
--
MOLECULE: C[C@]1(c2nc3c(C(N)=O)cccc3[nH]2)CCCN1
GI50: > 100000 nM
--
MOLECULE: NC(CCl)=NCC12CC3CC(CC(C3)C1)C2
GI50: 918 nM
--
MOLECULE: N#Cc1ccc2[nH]cc(Cc3c[nH]c4ccc(C#N)cc34)c2c1
GI50: 8420 nM
--
MOLECULE: C[N+]1(CCNP(=S)(NCC[N+]2(C)Cc3c(ccc4c3OCO4)C3C2c2cc4c(cc2C[C@@H]3O)OCO4)NCC[N+]2(C)Cc3c(ccc4c3OCO4)C3C2c2cc4c(cc2C[C@@H]3O)OCO4)Cc2c(ccc3c2OCO3)C2C1c1cc3c(cc1C[C@H]2O)OCO3 (some centres not stated)
GI50: 1230 nM
--
MOLECULE: O=C(N/N=C\c1ccc(N(CCCl)CCCl)cc1)c1cccnc1
GI50: 9100 nM
--
MOLECULE: N#Cc1c(N)c(C(=O)c2ccc3c(c2)OCCO3)n2c1CCCC2
GI50: 5990 nM
--
MOLECULE: CC[C@H](C)[C@H](NC(=O)c1ncccn1)C(=O)N(C)[C@H](C[C@@H](OC(C)=O)c1nc(C(=O)N[C@@H](Cc2ccccc2)C[C@H](C)C(=O)OC)cs1)C(C)C
GI50: 848 nM
--
MOLECULE: C=C[C@@H]1CCC/C=C/[C@@H]2C[C@H](O)C[C@H]2[C@H](O)/C=C/C(=O)O1
GI50: 545 nM
--
MOLECULE: CC1(C)N=C(N)N=C(N)N1c1cccc(CCCCc2ccc(Cl)c(S(=O)(=O)F)c2)c1
GI50: 732 nM
--
MOLECULE: N[C@@H](Cc1c[nH]c2ccccc12)C(=O)NC1CCN(Cc2c[nH]c3ccc(Cl)cc23)CC1
GI50: 5560 nM

----------
Tested on: OVCAR-4 ovarian
ASSAY NAME: NCI tumour cell line growth inhibition, 48 h

COMPOUND: [Mn+3].[O-][Cl+3]([O-])([O-])O.[O-]c1ccccc1C=NCCN1CC1.[O-]c1ccccc1C=NCCN1CC1
TGI: > 100 µM
//
COMPOUND: Cc1ccc(C(=O)C2C=C(c3ccc(C)cc3)SC3C=CCC32)cc1 (configuration not stated)
TGI: 75.7 µM
//
COMPOUND: C/C(CC(O)(C(F)(F)F)C(F)(F)F)=N\NC(N)=S
TGI: > 10 µM
//
COMPOUND: CSc1c(C(N)=S)c(N)nn1-c1ccccc1
TGI: > 100 µM
//
COMPOUND: O=C(O)CN1CCN2CCCCCCCCN(CC1)CCN(CC(=O)O)CC2
TGI: > 100 µM
//
COMPOUND: CSc1nc2c(nc(N)n2C2OC(CO)C(O)C(O)C2O)c(=O)[nH]1 (configuration not stated)
TGI: > 100 µM
//
COMPOUND: COc1cc(OCCCN2CCCC2)ccc1Nc1ncc(Cl)c(Nc2ccccc2P(C)(C)=O)n1
TGI: 11.7 µM
